System: SF-268 CNS
Experiment: NCI tumour cell line growth inhibition, 48 h
Assay Endpoint: TGI

Prompt: Please report the measured TGI for `Cc1onc(-c2c(F)cccc2Cl)c1C(=O)N[C@@H]1C(=O)N2[C@@H]1SC(C)(C)[C@@H]2C(=O)O` tested on SF-268 CNS.
Response: > 100 µM

Prompt: Enter recorded TGI with SF-268 CNS for Cc1cc(C)c2c(c1)C(=O)C1(C2)Cc2c(ccc(C)c2C)C1=O (stereo not drawn) here.
Response: > 100 µM

Prompt: Under SF-268 CNS: report TGI of COCC12CC(CC1=O)C1C2ON2c3ccccc3C(=O)C12c1ccccc1 (stereo not drawn) .
Response: > 100 µM
